experiment: growth inhibitors of H69AR lung tumor, primary screen, human, duplicate replicates (AID 580); conditions: H69AR lung tumor cells viability, ATP luminescence, 72 h; at 10 µM; hits give low values;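 further: 100% = mean luminescence of untreated wells and 0% = no signal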
Collected viability values appear next to each entry.
METRIC NAME: viability (%)

COc1ccc(CNc2nc(NCc3ccc(OC)cc3)n(S(C)(=O)=O)n2)cc1	110
Cc1cc(=O)n(C)c(=O)n1CCCNc1ccccc1	99.9
O=C(NCc1cccnc1)c1cn(CCc2ccccc2)nn1	109
C[C@H](NC(=O)Nc1cccc(C(F)(F)F)c1)C(=O)O	93.2
Nc1ccc(S(=O)(=O)Nc2ncccn2)cc1	104
CCOC(=O)C(NC(C)=O)(NS(=O)(=O)c1ccccc1)C(F)(F)F (stereo not drawn)	100
Cn1cccc1-c1cc(C(=O)O)[nH]n1	93.8
Nc1nnc(-c2cccc(Cl)c2Cl)c(N)n1	97.1
C[C@]12CCC(=O)C=C1CC[C@@H]1[C@@H]2CC[C@@]2(C)[C@H]1CC[C@]2(O)C(=O)CO	92.8
CCOC(=O)C1CCN(C(=O)c2ccc(Cl)c(Cl)c2)CC1	102
CCOc1ccc2[nH]c(=O)c(CN(CCOC)C(=O)N3CCOCC3)cc2c1	92.1
CCN(CC)C(=O)Cn1c(=O)n(Cc2ccccc2Cl)c2c1c(=O)n(C)c(=O)n2C	93.7
COc1cc2nc(N3CCN(C(=O)C4CCCO4)CC3)nc(N)c2cc1OC (stereo not drawn)	91.6
COc1ccc(/C=N/n2c(=O)[nH]c3c([nH]c4ccc(C)cc43)c2=O)cc1CN1CCOCC1	84.6
CCN(CC)C(=O)CSc1nc2ccccc2c(=O)n1CCC(=O)NCc1ccc(F)cc1	92.7
O=C(NCc1ccco1)C1(S(=O)(=O)c2ccc(Cl)cc2)CC1	71.2
Cn1c(Cl)nc2ccccc21	94.8
Cc1ccc(NC(=O)C2CCCN(S(=O)(=O)c3cnc[nH]3)C2)c(Br)c1 (stereo not drawn)	101
CCC(NC(C)C)C(O)c1ccc(O)c(O)c1 (stereo not drawn)	85
CCC(=O)N1CCc2cc(Br)cc(S(=O)(=O)N3CCCCCC3)c21	95.5
Cc1noc(C)c1COC(=O)c1ccccc1Oc1ccccc1	96.5
CC(C[N+](C)(C)C)OC(N)=O (stereo not drawn)	99.4
Cc1cccc(C)c1NC(=O)N1CCN(C2CCCCC2)CC1	104
